Molecular target: T1, recombinant human FGFR4 Fc fusion (human, UniProt P22455 144-369)
T1 construct: 19 used; also called FGFR4c; not shown: Fc part of the FGFR-Fc fusion
T1 sequence: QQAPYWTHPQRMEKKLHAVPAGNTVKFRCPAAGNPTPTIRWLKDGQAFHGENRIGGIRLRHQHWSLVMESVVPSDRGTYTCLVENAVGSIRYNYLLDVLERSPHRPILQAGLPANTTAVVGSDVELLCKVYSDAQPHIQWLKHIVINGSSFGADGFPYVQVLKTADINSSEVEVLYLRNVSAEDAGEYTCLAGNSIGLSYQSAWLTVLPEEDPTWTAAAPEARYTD
Experiment: solid phase ELISA on coated FGFR-Fc
measure: EC50 (nM)

[[record]]
binder = "Ab19 (antibody, human IgG2, kappa, V domains shown, format in the assays not spelled out) VH: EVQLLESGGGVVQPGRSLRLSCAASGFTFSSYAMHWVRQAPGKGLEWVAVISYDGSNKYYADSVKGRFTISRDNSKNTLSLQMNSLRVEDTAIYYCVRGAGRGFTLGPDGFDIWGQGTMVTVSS VL: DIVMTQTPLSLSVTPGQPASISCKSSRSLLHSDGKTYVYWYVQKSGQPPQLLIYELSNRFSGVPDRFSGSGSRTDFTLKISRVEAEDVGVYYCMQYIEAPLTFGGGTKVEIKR"
readout_value = 38.2

[[record]]
binder = "Ab90 (antibody, human IgG2, kappa, V domains shown, format in the assays not spelled out) VH: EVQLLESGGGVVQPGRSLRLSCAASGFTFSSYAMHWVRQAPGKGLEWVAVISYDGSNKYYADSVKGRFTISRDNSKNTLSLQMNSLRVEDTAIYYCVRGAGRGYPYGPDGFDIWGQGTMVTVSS VL: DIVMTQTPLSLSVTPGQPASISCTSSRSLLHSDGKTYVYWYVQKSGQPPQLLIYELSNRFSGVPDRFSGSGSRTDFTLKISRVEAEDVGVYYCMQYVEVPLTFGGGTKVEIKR"
readout_value = 1.26

[[record]]
binder = "Ab92 (antibody, human IgG2, kappa, V domains shown, format in the assays not spelled out) VH: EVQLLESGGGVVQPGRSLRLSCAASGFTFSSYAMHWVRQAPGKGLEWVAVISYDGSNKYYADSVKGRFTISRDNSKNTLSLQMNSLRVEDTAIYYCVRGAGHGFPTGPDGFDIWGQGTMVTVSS VL: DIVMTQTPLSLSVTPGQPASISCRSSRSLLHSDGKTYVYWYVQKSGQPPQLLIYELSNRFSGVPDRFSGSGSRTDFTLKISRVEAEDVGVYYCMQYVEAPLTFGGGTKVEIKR"
readout_value = 13.1

[[record]]
binder = "Ab60 (antibody, human IgG2, kappa, V domains shown, format in the assays not spelled out) VH: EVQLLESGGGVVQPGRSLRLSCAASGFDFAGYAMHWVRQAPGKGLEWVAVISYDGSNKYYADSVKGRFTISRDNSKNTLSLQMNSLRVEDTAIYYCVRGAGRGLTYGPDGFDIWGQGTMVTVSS VL: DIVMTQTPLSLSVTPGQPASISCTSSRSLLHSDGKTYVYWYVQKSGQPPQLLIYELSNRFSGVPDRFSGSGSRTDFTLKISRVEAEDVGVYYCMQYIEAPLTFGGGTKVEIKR"
readout_value = 0.31

